Experiment notes: Test of kinetics in blood of rats
Type: in vivo
Condition parameters: rat, in vivo, po, 10 mg/kg
Assay endpoint: Cmax (ng/mL)
Reply numerically in ng/mL, unit not repeated.

According to the records, this molecule C=CC(=O)N[C@@H](Cc1cncn1C)C(=O)OC displays Cmax of 1623.9

According to the records, this molecule C=CC(=O)N[C@@H](Cc1cncn1C)C(=O)OCCCC displays Cmax of 2407.2

According to the records, this molecule C=CC(=O)N[C@@H](Cc1cncn1C)C(=O)OCCc1ccc(C(C)(C)C)cc1 displays Cmax of 2562.7

According to the records, this molecule C=CC(=O)N[C@@H](Cc1cncn1C)C(=O)OCCC(C)C displays Cmax of 2144.0

According to the records, this molecule C=CC(=O)N[C@@H](Cc1cncn1C)C(=O)OCc1ccc(C(C)(C)C)cc1 displays Cmax of 2207.4

According to the records, this molecule C=CC(=O)N[C@@H](Cc1cncn1C)C(=O)OCc1ccc(Cl)cc1 displays Cmax of 2579.9

According to the records, this molecule C=CC(=O)N[C@@H](Cc1cncn1C)C(=O)OCC displays Cmax of 2719.4

====

Experiment notes: Test of kinetics in blood of rats
Assay type: in vivo
Condition parameters: rat, in vivo, po, 10 mg/kg
Hi there, I'd appreciate the recorded Cmax for every entry that follows.
Reply numerically in ng/mL, unit not repeated.

According to the records, this molecule C=CC(=O)N[C@@H](Cc1cncn1C)C(=O)OCc1ccc(C)cc1 displays Cmax of 2671.7

According to the records, this molecule C=CC(=O)N[C@@H](Cc1cncn1C)C(=O)O displays Cmax of 372.5

According to the records, this molecule C=CC(=O)N[C@@H](Cc1cncn1C)C(=O)OC(C)OC(=O)OC1CCCCC1 (some centres unmarked) displays Cmax of 2044.3

According to the records, this molecule C=CC(=O)N[C@@H](Cc1cncn1C)C(=O)OCCc1ccc(OC)cc1 displays Cmax of 3163.4

According to the records, this molecule C=CC(=O)N[C@@H](Cc1cncn1C)C(=O)OCCc1ccccc1 displays Cmax of 3111.6

According to the records, this molecule C=CC(=O)N[C@@H](Cc1cncn1C)C(=O)OCCc1ccc(Cl)cc1 displays Cmax of 2391.8

According to the records, this molecule C=CC(=O)N[C@@H](Cc1cncn1C)C(=O)OCCC(C)(C)C displays Cmax of 2761.6

According to the records, this molecule C=CC(=O)N[C@@H](Cc1cncn1C)C(=O)OC(c1ccccc1)c1ccccc1 displays Cmax of 1495.3

====

Experiment notes: Test of kinetics in blood of rats
Assay type: in vivo
Condition parameters: rat, in vivo, po, 10 mg/kg
Protocol: Each of the compound of the present invention and the carboxylic acid type A thereof was dissolved in DMSO, diluted with water. A sample solution (1% DMSO solution) made into 2 mg/mL was orally administered in a single dose to the fasted Wistar strain SPF male rats of seven weeks age using a stomach tube (10 mg/5 mL/kg). […]
Assay endpoint: AUC
# answer = value followed by unit

According to the records, this compound C=CC(=O)N[C@@H](Cc1cncn1C)C(=O)O [Carboxylic acid type A, N^α-acryloyl-N^π-methyl-L-histidine] displays AUC of 1339.4 ng·h/mL

According to the records, this compound C=CC(=O)N[C@@H](Cc1cncn1C)C(=O)OC(C)OC(=O)OC1CCCCC1 (stereo partly shown) [Compound 17] displays AUC of 2704.9 ng·h/mL

According to the records, this compound C=CC(=O)N[C@@H](Cc1cncn1C)C(=O)OCc1ccc(C(C)(C)C)cc1 [Compound 11] displays AUC of 4234.6 ng·h/mL

According to the records, this compound C=CC(=O)N[C@@H](Cc1cncn1C)C(=O)OCCC(C)C [Compound 4] displays AUC of 2641.8 ng·h/mL
